Reference source: patent US8017612B2

# target.under.test: HCV polymerase (NS5B) type 1a (Hepatitis C virus genotype 1a)
# Construct: made in house; host or cells: Escherichia coli (by the 'similar method' of the 1b enzyme)
# test.protocol: Assay of enzyme (HCV polymerase) inhibitory activity, type 1a enzyme
# Format: biochemical, HCV type 1a (cloned from the blood of patients)
# experimental.parameters: HCV polymerase inhibitory activity (IC50), 1a, type 1a enzyme 1.5 μg/ml, 25° C., 60 min
assay.readout: IC50

1. CCc1ccc(CNC(=O)[C@H]2CN(C(C)=O)CCN2S(=O)(=O)c2ccc(C(C)C)cc2)c(C)c1	< 100 nM
2. CCC(F)(F)c1ccc(CNC(=O)[C@H]2CN(C(=O)c3cc(C)on3)CCN2S(=O)(=O)c2ccc(OC(F)(F)F)cc2)cc1	> 1000 nM
3. CCC(C)(C)c1ccc(S(=O)(=O)N2CCN(C(C)=O)CC2C(=O)NCc2ccc(C(F)(F)F)cc2)cc1 (stereo not shown)	> 1000 nM
4. CC(C)c1ccc(CNC(=O)[C@H]2CN(C(=O)Nc3nncs3)CCN2S(=O)(=O)c2ccc(C(F)(F)F)cc2)cc1	100 to 1000 nM
5. CCCc1ccc(CNC(=O)[C@H]2CN(c3cnc(C(=O)O)cn3)CCN2S(=O)(=O)c2ccc(OC(F)(F)F)cc2)c(C)c1	< 100 nM
6. CCCc1ccc(CNC(=O)[C@H]2CN(c3nc(CO)c(CO)s3)CCN2S(=O)(=O)c2ccc(OC(F)(F)F)cc2)cc1	< 100 nM
7. CC(=O)N1CCN(S(=O)(=O)c2ccc(Br)cc2)C(C(=O)NCc2ccc(C(F)(F)F)cc2)C1 (stereo not shown)	> 1000 nM
